CC50 at 5 days by entry:
# test-details: in vitro
# cond: human, uninfected MT-4 cells, CC50 (nM), same protocol as Test A, CellTiter-Glo

The following compounds have reported results that may help.
1. NS(=O)(=O)c1ccc(-c2cccnc2[C@H](Cc2cc(F)cc(F)c2)NC(=O)Cc2c[nH]c3ccc(O)cc23)cc1    > 53000 nM
2. Cc1nnc(-c2cccc(-c3cccnc3[C@H](Cc3cc(F)cc(F)c3)NC(=O)Cc3c[nH]c4ccc(F)cc34)c2)o1    > 53200 nM

Now look at this entry.
Q) // lookup CC50 at 5 days for NC(=O)c1cc(-c2cccnc2[C@H](Cc2cc(F)cc(F)c2)NC(=O)Cn2nc(C(F)F)c3c2C(O)C2CC32)ccc1F (stereo partly drawn)
A) > 53200 nM
